target: T1, human CD71 extracellular domain (human, UniProt P02786 89-760); assay: primary ELISA; signal over HSA control
T1 construct: also called hCD71; CD71-ECD
T1 sequence (P02786 89-760): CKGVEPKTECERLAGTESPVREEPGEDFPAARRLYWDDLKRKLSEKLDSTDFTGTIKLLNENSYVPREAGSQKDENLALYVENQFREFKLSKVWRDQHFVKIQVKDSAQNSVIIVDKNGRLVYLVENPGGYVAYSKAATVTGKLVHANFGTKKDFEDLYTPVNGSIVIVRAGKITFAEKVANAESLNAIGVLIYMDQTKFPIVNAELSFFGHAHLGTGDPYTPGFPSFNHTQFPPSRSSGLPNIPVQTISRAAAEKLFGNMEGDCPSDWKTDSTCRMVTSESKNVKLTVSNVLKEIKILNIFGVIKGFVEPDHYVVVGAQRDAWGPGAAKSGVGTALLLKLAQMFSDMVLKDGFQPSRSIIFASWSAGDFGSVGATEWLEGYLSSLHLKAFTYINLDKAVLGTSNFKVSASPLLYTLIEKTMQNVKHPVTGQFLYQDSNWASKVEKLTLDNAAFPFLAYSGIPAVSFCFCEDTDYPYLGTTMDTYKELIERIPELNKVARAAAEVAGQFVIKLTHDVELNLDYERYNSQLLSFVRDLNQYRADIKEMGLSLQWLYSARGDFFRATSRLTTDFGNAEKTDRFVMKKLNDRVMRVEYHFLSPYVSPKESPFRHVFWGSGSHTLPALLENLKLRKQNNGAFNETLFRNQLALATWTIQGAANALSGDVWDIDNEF
ASSAY_METRIC: hCD71:HSA (ratio)

a: CD71-binding FN3 domain SEQ ID NO 424 (designed binder) MLPAPKNLVVSRVTEDSARLSWTAPDAAFDSFFIGYLEPQPPGEAIHLIVPGSERSYDLTGLKPGTEYNVTIQGVKGGFPSDPLDASFTT
b: CD71-binding FN3 domain SEQ ID NO 420 (designed binder) MLPAPKNLVVSRVTEDSARLSWTAPDAAFDSFFIGYLEPQPPGEAIHLQVPGSERSYDLTGLKPGTEYNVTIHGVKGGIPSMPLSAKFTT
c: CD71-binding FN3 domain SEQ ID NO 365 (designed binder) MLPAPKNLVVSRVTEDSARLSWTAPDAAFDSFFIGYLEPQPPGEAIVLWVPGSERSYDLTGLKPGTEYNVTIQGVKGGFPSHPLVAKFTT
d: CD71-binding FN3 domain SEQ ID NO 436 (designed binder) MLPAPKNLVVSRVTEDSARLSWTAPDAAFDSFFIGYLEPQPPGEAIHLLVPGSERSYDLTGLKPGTEYNVTIQGVKGGFPSEPLWAKFTT
*Q* List the binders shown above again, sorted by falling hCD71:HSA values. Use the labels to give the ranking in the order requested.
*A* b, d, a, c

Where do the numbers come from? From patent US20260151494A1.
